Data provenance is patent US9982005B2.

I'd be grateful if you could share measured MIC for these entries.
# Test system: EC878 E. coli tolC
# protocolText: broth dilution MIC, E. coli EC878
# Type: cell-based
# conditionDescription: Escherichia coli

Take each entry in turn and give its MIC.
1. CC[C@H]1OC(=O)[C@H](C)C(=O)C[C@@H](O[C@@H]2OC(C)CC(N(C)C)C2O)[C@@](C)(OC)C[C@@H](C)CN(C(C)=O)[C@H](C)[C@H]2N(CCCCn3cc(-c4nc5ccccc5s4)nn3)C(=O)O[C@]12C (some centres unmarked) [FSM-30514]
2. CC[C@H]1OC(=O)[C@H](C)C(=O)C[C@@H](O[C@@H]2OC(C)CC(N(C)C)C2O)[C@](C)(OC)C[C@@H](C)CN[C@H](C)[C@H]2N(CCCCn3cc(-c4nccs4)nn3)C(=O)O[C@]12C (some centres unmarked) [FSM-10787]

> 32 µg/mL
2 µg/mL

----------
I'd be grateful if you could share measured MIC for these entries.
# System: EC882 E. coli imp
# protocolText: broth dilution MIC, E. coli EC882
# Assay type: cell-based
# conditionDescription: Escherichia coli
One number for each entry, in µg/mL.

Some compounds with recorded MIC:
>>> reportedresult("CC[C@H]1OC(=O)[C@H](C)C(=O)[C@H](C)[C@@H](O[C@@H]2OC(C)CC(N(C)C)C2O)[C@](C)(OC)C[C@@H](C)CN(C(C)=O)[C@H](C)[C@H]2N(CCCCn3cc(-c4ccccn4)nn3)C(=O)O[C@]12C (stereo partly shown)")
1
>>> reportedresult("CC[C@H]1OC(=O)[C@H](C)C(=O)[C@H](C)[C@@H](O[C@@H]2OC(C)CC(N(C)C)C2O)[C@](C)(OC)C[C@@H](C)CN[C@H](C)[C@H]2N(CCCCn3cc(-c4nccs4)nn3)C(=O)O[C@]12C (stereo partly shown)")
0.0625

Which MIC is listed for CC[C@H]1OC(=O)[C@H](C)[C@@H](O[C@H]2C[C@@](C)(OC)[C@@H](O)[C@H](C)O2)[C@H](C)[C@@H](O[C@@H]2O[C@H](C)C[C@H](N(C)C)[C@H]2O)[C@](C)(O)C[C@@H](C)CN(C)[C@H](C)[C@@H](O)[C@]1(C)O [Azithromycin, reference compound] ?
0.0625

----------
# Tested on: SA1708 S. aureus ermA positive msrA negative
# protocolText: broth dilution MIC, S. aureus SA1708
# Assay type: cell-based
# conditionDescription: Staphylococcus aureus
measuredEndpoint: log10 of MIC (log10 of the value in µg/mL)
Base-10 log of MIC, unit µg/mL.

>>> reportedresult("CC[C@H]1OC(=O)C(C)(F)C(=O)[C@H](C)[C@@H](O[C@@H]2OC(C)CC(N(C)C)C2O)[C@](C)(OC)C[C@@H](C)CN[C@H](C)[C@H]2N(CCCCn3cc(-c4ccccn4)nn3)C(=O)O[C@]12C (stereo partly drawn)")
0.30
>>> reportedresult("CC[C@H]1OC(=O)C(C)(F)C(=O)[C@@H](C)[C@@H](O[C@@H]2OC(C)CC(N(C)C)C2O)[C@](C)(OC)C[C@@H](C)CN(C)[C@H](C)[C@H]2N(CCCCn3cc(-c4nccs4)nn3)C(=O)O[C@]12C (stereo partly drawn)")
1.20
>>> reportedresult("CC[C@H]1OC(=O)C(C)C(=O)[C@@H](C)[C@@H](O[C@@H]2OC(C)CC(N(C)C)C2O)[C@](C)(OC)C[C@@H](C)CN[C@H](C)[C@H]2N(CCCCn3cc(-c4cccc(N)c4)nn3)C(=O)O[C@]12C (stereo partly drawn)")
0.30
>>> reportedresult("CC[C@H]1OC(=O)C(C)(F)C(=O)[C@@H](C)[C@@H](O[C@@H]2OC(C)CC(N(C)C)C2O)[C@](C)(OC)C[C@@H](C)CN[C@H](C)[C@H]2N(CCCCn3cc(-c4cccc(N)c4)nn3)C(=O)O[C@]12C (stereo partly drawn)")
1.20

Take each entry in turn and give its log10 of MIC.
1. CC[C@H]1OC(=O)C(C)(F)C(=O)[C@H](C)[C@@H](O[C@@H]2OC(C)CC(N(C)C)C2O)[C@](C)(OC)C[C@@H](C)CN(C)[C@H](C)[C@H]2N(CCCCn3cc(-c4cccc(N)c4)nn3)C(=O)O[C@]12C (stereo partly drawn)
2. CC[C@H]1OC(=O)C(C)(F)C(=O)[C@@H](C)[C@@H](O[C@@H]2OC(C)CC(N(C)C)C2O)[C@](C)(OC)C[C@@H](C)CN[C@H](C)[C@H]2N(CCCCn3cc(-c4nccs4)nn3)C(=O)O[C@]12C (stereo partly drawn)
3. CC[C@H]1OC(=O)C(C)(F)C(=O)[C@@H](C)[C@@H](O[C@@H]2OC(C)CC(N(C)C)C2O)[C@](C)(OC)C[C@@H](C)CN[C@H](C)[C@H]2N(CCCCn3cc(-c4ccccn4)nn3)C(=O)O[C@]12C (stereo partly drawn)
4. CC[C@H]1OC(=O)[C@H](C)C(=O)[C@H](C)[C@@H](O[C@@H]2OC(C)CC(N(C)C)C2O)[C@](C)(OC)C[C@@H](C)CN[C@H](C)[C@H]2N(CCCCn3cc(-c4cccc(N)n4)nn3)C(=O)O[C@]12C (stereo partly drawn)

1: 0.90; 2: 1.20; 3: 1.51; 4: 0.30

Take each entry in turn and give its log10 of MIC.
1. CCC[C@@H]1C[C@@H](C(=O)N[C@@H]([C@H]2O[C@H](SC)[C@H](O)[C@@H](O)[C@H]2O)[C@H](C)Cl)N(C)C1 [Clindamycin, clindamycin, reference compound]
2. CC[C@H]1OC(=O)C(C)(F)C(=O)[C@@H](C)[C@@H](O[C@@H]2OC(C)CC(N(C)C)C2O)[C@](C)(OC)C[C@@H](C)CN[C@H](C)[C@H]2N(CCCCn3cc(-c4cccc(N)n4)nn3)C(=O)O[C@]12C (stereo partly drawn)
3. CC[C@H]1OC(=O)C(C)(F)C(=O)[C@H](C)[C@@H](O[C@@H]2OC(C)CC(N(C)C)C2O)[C@](C)(OC)C[C@@H](C)CN[C@H](C)[C@H]2N(CCCCn3cc(-c4cccc(N)c4)nn3)C(=O)O[C@]12C (stereo partly drawn)

[-0.60, 1.20, -0.30]
